- target.of.assay: furin, P09958;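 further: purified furin at 1:10 enzyme:substrate in 50 mM HEPES pH 7.5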
- Sequence (P09958 whole entry): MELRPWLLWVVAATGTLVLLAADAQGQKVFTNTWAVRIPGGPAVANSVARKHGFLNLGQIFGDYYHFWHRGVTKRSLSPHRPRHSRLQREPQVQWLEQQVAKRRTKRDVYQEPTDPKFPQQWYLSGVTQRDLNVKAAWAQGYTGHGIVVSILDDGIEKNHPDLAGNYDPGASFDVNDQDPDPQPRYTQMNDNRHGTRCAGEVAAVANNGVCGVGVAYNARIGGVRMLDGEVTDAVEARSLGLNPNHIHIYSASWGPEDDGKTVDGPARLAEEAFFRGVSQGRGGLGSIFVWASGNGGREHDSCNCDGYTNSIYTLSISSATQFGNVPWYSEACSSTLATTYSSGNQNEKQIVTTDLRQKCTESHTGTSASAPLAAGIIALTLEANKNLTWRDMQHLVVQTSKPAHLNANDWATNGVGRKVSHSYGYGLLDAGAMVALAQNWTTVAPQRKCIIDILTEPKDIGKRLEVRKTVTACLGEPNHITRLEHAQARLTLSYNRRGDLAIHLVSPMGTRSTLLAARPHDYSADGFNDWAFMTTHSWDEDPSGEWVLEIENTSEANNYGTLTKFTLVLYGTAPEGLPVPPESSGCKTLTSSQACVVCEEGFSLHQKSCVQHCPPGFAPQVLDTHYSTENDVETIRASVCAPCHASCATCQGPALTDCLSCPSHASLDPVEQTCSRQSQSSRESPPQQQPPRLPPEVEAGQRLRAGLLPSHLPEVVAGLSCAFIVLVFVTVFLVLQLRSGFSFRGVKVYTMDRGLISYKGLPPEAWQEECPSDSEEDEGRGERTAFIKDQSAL
- test: furin cleavage Z-score vs untreated control; higher = more cleavage, active = 3.5 or more, inactive = 1 or less, 8 variable residues between constant flanks
- assay.context: 15 min
The other results are listed elsewhere or left out. No count for the full screen is at hand.
Parameter: furin cleavage Z-score. Scope: all listed entries.
Just the number, please.

Use the examples below as a reference point.
CAEVVTLTWVAGNASASA [HC144]
1.05
CAASAVLKRDAGNASASA [FS-751]
-1.94
CAIKDRNKRDAGNASASA [FS-251]
10.9

Input line: Could you please provide reported furin cleavage Z-score for CARATRFWDPAGNASASA [FS-2650] ? Thanks!
Output line: -0.738

Input line: Could you please provide reported furin cleavage Z-score for CARRTRDLDPAGNASASA [FS-2520] ? Thanks!
Output line: 8.71

Input line: Could you please provide reported furin cleavage Z-score for CARRRRELEPAGNASASA [FS-1867] ? Thanks!
Output line: 11

Input line: Could you please provide reported furin cleavage Z-score for CAPARRNRRAAGNASASA [FS-837] ? Thanks!
Output line: 9.65

Input line: Could you please provide reported furin cleavage Z-score for CALGDREKRDAGNASASA [FS-548] ? Thanks!
Output line: 4.22

Input line: Could you please provide reported furin cleavage Z-score for CAASGREGRDAGNASASA [FS-402] ? Thanks!
Output line: -0.657

Input line: Could you please provide reported furin cleavage Z-score for CAFSAREKRDAGNASASA [FS-587] ? Thanks!
Output line: 11.3

Input line: Could you please provide reported furin cleavage Z-score for CARQRRARFVAGNASASA [FS-1770] ? Thanks!
Output line: 8.49
